// data source = patent US9828365B2

System: HCV replicon 1A Y93H
Assay procedure: Cell-based HCV replicon assay, 1A Y93H
Test settings: read-out: 1A Y93H IC50; replicon cells, 3 days, replicon RNA by real-time PCR
Measurement kind: log10 of IC50 (log10 of the value in nM)

Compound | Measurement kind | Obs value
COC(=O)N[C@H](C(=O)N1C[C@H](F)C[C@H]1c1ncc(-c2ccc3c(c2)OC(C2CC2)C2=C3COc3cc(-c4cnc([C@@H]5C[C@@H](F)CN5C(=O)[C@@H](NC(=O)OC)C(C)C)[nH]4)ccc32)[nH]1)C(C)C (single isomer, unassigned) [Compound 21] | log10 of IC50 | 0.34
COC(=O)N[C@H](C(=O)N1CCC[C@H]1c1ncc(-c2ccc3c(c2)OC(c2ccccc2)C2=C3COc3cc(-c4cnc([C@@H]5CCCN5C(=O)[C@@H](NC(=O)OC)C(C)C)[nH]4)ccc32)[nH]1)C(C)C (single isomer, unassigned) [Compound 8] | log10 of IC50 | 1.31
COC(=O)N[C@H](C(=O)N1C[C@H](F)C[C@H]1c1ncc(-c2ccc3c(c2)OC(C2CC2)C2=C3COc3cc(-c4cnc([C@@H]5C[C@@H](F)CN5C(=O)[C@@H](NC(=O)OC)C(C)C)[nH]4)ccc32)[nH]1)C(C)C (single isomer, unassigned) [Compound 20] | log10 of IC50 | 0.29
COC(=O)N[C@H](C(=O)N1CCC[C@H]1c1ncc(-c2ccc3c(c2)OC(c2cccc(OC)c2)C2=C3COc3cc(-c4cnc([C@@H]5CCCN5C(=O)[C@@H](NC(=O)OC)C(C)C)[nH]4)ccc32)[nH]1)C(C)C (single isomer, unassigned) | log10 of IC50 | 0.39
COC(=O)N[C@H](C(=O)N1CCC[C@H]1c1ncc(-c2ccc3c(c2)OC(c2ccccc2)C2=C3COc3cc(-c4cnc([C@@H]5CCCN5C(=O)[C@@H](NC(=O)OC)C(C)C)[nH]4)ccc32)[nH]1)C(C)C (single isomer, unassigned) [Compound 9] | log10 of IC50 | 0.60
